Reported pIC50 values follow for various compounds
Target: Interstitial collagenase (Homo sapiens)
Sequence (P03956 whole entry): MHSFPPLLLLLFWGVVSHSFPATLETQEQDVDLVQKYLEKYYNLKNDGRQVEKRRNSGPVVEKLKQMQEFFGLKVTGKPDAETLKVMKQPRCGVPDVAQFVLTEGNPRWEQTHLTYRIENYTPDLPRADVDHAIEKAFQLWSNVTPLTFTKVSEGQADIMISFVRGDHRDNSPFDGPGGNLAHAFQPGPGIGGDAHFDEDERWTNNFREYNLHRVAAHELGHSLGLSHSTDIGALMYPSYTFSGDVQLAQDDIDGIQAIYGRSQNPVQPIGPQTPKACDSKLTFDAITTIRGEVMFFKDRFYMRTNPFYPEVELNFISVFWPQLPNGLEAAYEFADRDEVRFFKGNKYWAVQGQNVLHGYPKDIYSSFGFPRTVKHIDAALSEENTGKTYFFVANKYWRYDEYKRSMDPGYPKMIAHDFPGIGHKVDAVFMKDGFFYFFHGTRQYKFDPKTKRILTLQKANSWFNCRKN
pIC50: −log10 of the molar value.
property-measured: pIC50

[[record]]
compound = "CC(C)C[C@H](CC(=O)NO)C(=O)N[C@H]1CCCCN(CCOc2ccccc2)C1=O"
system_under_test = "Interstitial collagenase (Homo sapiens)"
reported_measurement = 6.93

[[record]]
compound = "CCCCCCCC[C@H](CC(=O)NO)C(=O)N[C@H]1CCCCN(CC(=O)OC)C1=O"
system_under_test = "Interstitial collagenase (Homo sapiens)"
reported_measurement = 7.96

[[record]]
compound = "CCC[C@@H](C(=O)NO)[C@@H](CC(C)C)C(=O)N[C@H]1CCCCN(CCOC)C1=O"
system_under_test = "Interstitial collagenase (Homo sapiens)"
reported_measurement = 7.08

[[record]]
compound = "CC(C)C[C@H](CC(=O)NO)C(=O)N[C@H]1CCCCN(CCCOc2ccccc2)C1=O"
system_under_test = "Interstitial collagenase (Homo sapiens)"
reported_measurement = 6.85

[[record]]
compound = "CCCCCCCCC(C(=O)N[C@H]1CCCCN(CCOC)C1=O)C(C)C(=O)NO (single isomer, unassigned)"
system_under_test = "Interstitial collagenase (Homo sapiens)"
reported_measurement = 5.36

[[record]]
compound = "CCCCCCCC[C@H](CC(=O)NO)C(=O)N[C@H]1CCCCN(CCOC)C1=O"
system_under_test = "Interstitial collagenase (Homo sapiens)"
reported_measurement = 5.72

[[record]]
compound = "CCCCCCCC[C@@H](C(=O)N[C@H]1CCCCN(CC(=O)OC)C1=O)[C@@H](C)C(=O)NO"
system_under_test = "Interstitial collagenase (Homo sapiens)"
reported_measurement = 7.24

[[record]]
compound = "COC(=O)CN1CCCC[C@H](NC(=O)[C@H](CC(C)C)[C@@H](C)C(=O)NO)C1=O"
system_under_test = "Interstitial collagenase (Homo sapiens)"
reported_measurement = 7.31


====

Reported log10(IC50) values follow for various compounds
Biological target: Stromelysin-1 (Homo sapiens, UniProt P08254)
Sequence (P08254 whole entry): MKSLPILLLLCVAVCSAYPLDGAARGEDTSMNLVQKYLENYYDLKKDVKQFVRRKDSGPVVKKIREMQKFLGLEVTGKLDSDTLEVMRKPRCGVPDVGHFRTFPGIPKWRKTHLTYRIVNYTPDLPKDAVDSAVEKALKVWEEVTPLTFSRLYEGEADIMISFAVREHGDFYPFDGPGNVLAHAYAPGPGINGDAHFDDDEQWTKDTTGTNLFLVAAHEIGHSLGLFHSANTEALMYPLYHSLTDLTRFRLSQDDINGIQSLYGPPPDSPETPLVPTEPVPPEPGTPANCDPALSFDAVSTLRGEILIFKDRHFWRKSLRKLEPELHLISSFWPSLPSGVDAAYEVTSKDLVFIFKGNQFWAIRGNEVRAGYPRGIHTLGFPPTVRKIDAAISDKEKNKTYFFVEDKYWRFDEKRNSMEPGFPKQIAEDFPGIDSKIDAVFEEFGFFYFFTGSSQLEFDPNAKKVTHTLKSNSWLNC
property-measured: log10(IC50) (log10 of the value in µM)

[[record]]
compound = "CC(C)C[C@H](CC(=O)NO)C(=O)N[C@H]1CCCCN(CCCOc2ccccc2)C1=O"
system_under_test = "Stromelysin-1 (Homo sapiens, UniProt P08254)"
reported_measurement = 0.15

[[record]]
compound = "CCCCCCCC[C@H](CC(=O)NO)C(=O)N[C@H]1CCCCN(CC(=O)OC)C1=O"
system_under_test = "Stromelysin-1 (Homo sapiens, UniProt P08254)"
reported_measurement = 0.02

[[record]]
compound = "CC(C)C[C@H](CC(=O)NO)C(=O)N[C@H]1CCCCNC1=O"
system_under_test = "Stromelysin-1 (Homo sapiens, UniProt P08254)"
reported_measurement = 1.07

[[record]]
compound = "CCCCCCCC[C@@H](C(=O)N[C@H]1CCCCN(CCOC)C1=O)[C@@H](C)C(=O)NO"
system_under_test = "Stromelysin-1 (Homo sapiens, UniProt P08254)"
reported_measurement = -1.52

[[record]]
compound = "CCCCCCCCC(C(=O)N[C@H]1CCCCN(CCOC)C1=O)C(C)C(=O)NO (single isomer, unassigned)"
system_under_test = "Stromelysin-1 (Homo sapiens, UniProt P08254)"
reported_measurement = -0.97

